Entry source: ChEMBL document CHEMBL3739366

TEST_NAME: Clearance in beagle dog at 1 mg/kg, iv
Assay type: ADME, organism-based, Canis lupus familiaris
CONDITION_SUMMARY: in vivo
READOUT_NAME: clearance (mL/min/kg)

1. COc1cc(N2C(=O)N(Cc3c(F)cc(F)cc3F)c3ncccc3S2(=O)=O)cnc1OC :: 13

* * *

TARGET_UNDER_TEST: Orexin receptor type 2 (Homo sapiens, UniProt O43614)
Sequence (O43614 whole entry): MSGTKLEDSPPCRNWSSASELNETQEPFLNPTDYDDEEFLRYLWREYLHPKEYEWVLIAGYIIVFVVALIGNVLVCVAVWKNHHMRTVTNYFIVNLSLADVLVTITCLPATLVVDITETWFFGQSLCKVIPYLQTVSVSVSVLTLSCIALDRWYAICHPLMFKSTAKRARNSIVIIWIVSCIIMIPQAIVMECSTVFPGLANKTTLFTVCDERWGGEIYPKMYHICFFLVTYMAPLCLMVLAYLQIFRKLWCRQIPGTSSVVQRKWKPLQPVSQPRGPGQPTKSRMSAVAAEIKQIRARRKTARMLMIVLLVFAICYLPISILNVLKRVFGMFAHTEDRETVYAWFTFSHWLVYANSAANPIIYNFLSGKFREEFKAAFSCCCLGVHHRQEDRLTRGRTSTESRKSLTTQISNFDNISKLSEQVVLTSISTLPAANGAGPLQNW
pKi: −log10 of the molar value.
Short version: pKi at least 9 is TRUE, less is FALSE.

1. COc1ccc(N2C(=O)N(Cc3ccc(F)cc3Cl)c3ccccc3S2(=O)=O)cc1OC :: FALSE
2. COc1ccc(N2C(=O)N(Cc3c(F)cc(F)cc3OC)c3ccccc3S2(=O)=O)cc1OC :: FALSE
3. COc1cc(N2C(=O)N(Cc3c(F)cc(F)cc3F)c3ccccc3S2(=O)=O)cnc1OC :: FALSE
4. COc1cc(F)c(CN2C(=O)N(c3cnc(OC)c(OC)c3)S(=O)(=O)c3ccccc32)c(F)c1 :: TRUE
5. COc1cc(F)c(CN2C(=O)N(c3ccc(OC)c(OC)c3)S(=O)(=O)c3ccccc32)c(F)c1 :: TRUE
